Source: PubChem BioAssay AID1159580

Here, each record is paired with measured normalized growth data.
- experimental details: chemical genetic growth profiling, strain panel (AID 1159580);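 note: tested at 20 µM; growth read once vehicle control cultures reached saturation at 30 °C; 1 = growth at the plate median or of vehicle wells; lower values mean less growth of the strain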
- experimental context: S. cerevisiae deletion strains, growth OD, locus YBR171W, strain sec66, hits give low values
The campaign covered roughly 5,500 compounds. About 2,000 (36%) were called active. Inconclusive results (about 18%) are left out. The list shows a part of the results. Where a SMILES comes first, the peptide text is derived from it. Side-chain parts run from the residue outwards. [ ]: non-standard residue; d: D form. The star is where a group is joined. X1 = CCC(C)C(N)C1=NC(C(=O)*)CS1; Orn = NCCC[CH](N)C(=O)O
No unit in the answer, only the number.

Example cases with answers are listed next.
CC(=O)OC1CCC2(C)C3CC(=O)C4(C)C(CC5OC6(CCC(C)CO6)[C@@H](C)C54)C3CC[C@H]2C1 (stereo partly drawn) : 0.984
Cc1onc(-c2ccccc2)c1C(=O)NC1C(=O)N2[C@@H]1SC(C)(C)[C@@H]2C(=O)O (stereo partly drawn) : 1.02
COC1(C)CCC2OC2(C)CCC2C1CC2(C)C (stereo not drawn) : 1.02
CC(=O)NS(=O)(=O)c1ccc(NC(=O)c2ccccc2C(=O)O)cc1 : 1.04
O=c1c(O)c(-c2ccc(O)c(O)c2)oc2cc(O)ccc12 : 0.977

Query: Check the records and state normalized growth for CN(C)C(=N)N=C(N)N
Reply: 1.01

Query: Check the records and state normalized growth for CC(=O)OC[C@H]1O[C@@H](Oc2cc(OC(C)=O)c3c(=O)cc(-c4ccc(OC(C)=O)cc4)oc3c2)[C@H](OC(C)=O)[C@@H](OC(C)=O)[C@@H]1OC(C)=O
Reply: 0.981

Query: Check the records and state normalized growth for COC(=O)C[C@H]1C(C)(C)[C@@H](O)[C@@H]2CC3=C4C=C(OC)O[C@@H](c5ccoc5)[C@]4(C)CCC3[C@@]1(C)C2=O (stereo partly drawn)
Reply: 0.999

Query: Check the records and state normalized growth for COc1cc(-c2oc3cc(O)ccc3c(=O)c2O)ccc1O
Reply: 1

Query: Check the records and state normalized growth for CO[C@H]1C[C@H](O[C@H]2[C@H](C)[C@@H](OC3O[C@H](C)C[C@H](N(C)C)[C@H]3OC(C)=O)[C@@H](C)C[C@]3(CO3)C(=O)[C@H](C)[C@@H](OC(C)=O)[C@@H](C)[C@@H](C)OC(=O)[C@@H]2C)O[C@@H](C)[C@@H]1OC(C)=O (stereo partly drawn)
Reply: 1.01

Query: Check the records and state normalized growth for CC1(C)S[C@@H]2[C@H](NC(=O)Cc3ccccc3)C(=O)N2[C@H]1C(=O)O
Reply: 1.04

Query: Check the records and state normalized growth for CCOc1ccc(C(=O)c2ccc(OC)c(O)c2O)cc1
Reply: 1.02

Query: Check the records and state normalized growth for CCOc1ccc(C(=O)c2ccc(O)c(O)c2O)cc1
Reply: 0.899

Query: Check the records and state normalized growth for OCc1c[nH]c2ccccc12
Reply: 0.977

Query: Check the records and state normalized growth for O=C(O)c1cc(=O)c2c(Cl)cc(Cl)cc2[nH]1
Reply: 1.01

Query: Check the records and state normalized growth for COc1cc2cc3c4cc(OC)c(OC)cc4cc[n+]3c(C)c2cc1OC
Reply: 1.03

Query: Check the records and state normalized growth for COc1ccc(-c2oc3ccccc3c(=O)c2O)cc1OC
Reply: 0.848

Query: Check the records and state normalized growth for COc1ccc([C@H]2COc3c(ccc(O)c3OC)C2)c(OC)c1O
Reply: 0.969

Query: Check the records and state normalized growth for OC(c1cc(C(F)(F)F)nc2c(C(F)(F)F)cccc12)C1CCCCN1 (stereo not drawn)
Reply: 1.02

Query: Check the records and state normalized growth for O=C(O)c1cc(=O)c2cccc(O)c2[nH]1
Reply: 1.03

Query: Check the records and state normalized growth for CCC(C)C(N)C1=NC(C(=O)NC(CC(C)C)C(=O)NC(CCC(=O)O)C(=O)NC(C(=O)NCCCCC2NC(=O)C(CC(N)=O)NC(=O)C(CC(=O)O)NC(=O)C(Cc3cnc[nH]3)NC(=O)C(Cc3ccccc3)NC(=O)C(C(C)CC)NC(=O)C(CCCN)NC2=O)C(C)CC)CS1 (stereo not drawn) (cyclo(DNK([Ile-Glu-Leu-X1])[Orn]IFH); configuration not given here)
Reply: 1

Query: Check the records and state normalized growth for CCOc1ccc(NC(C)=O)cc1
Reply: 1.02

Query: Check the records and state normalized growth for CC(=O)O[C@H]1CC[C@]2(C)C3CC[C@@]4(C)C(CC5O[C@@]6(CCC(C)CO6)[C@@H](C)C54)C3CC[C@@H]2C1 (stereo partly drawn)
Reply: 1.03

Query: Check the records and state normalized growth for CC(=O)N[C@@H](Cc1c[nH]c2ccccc12)C(=O)O
Reply: 0.977

Query: Check the records and state normalized growth for O=C(OC[C@H]1O[C@H](OC(=O)c2cc(O)c(O)c(OC(=O)c3cc(O)c(O)c(O)c3)c2)[C@H](OC(=O)c2cc(O)c(O)c(OC(=O)c3cc(O)c(O)c(O)c3)c2)[C@@H](OC(=O)c2cc(O)c(O)c(OC(=O)c3cc(O)c(O)c(O)c3)c2)[C@@H]1OC(=O)c1cc(O)c(O)c(OC(=O)c2cc(O)c(O)c(O)c2)c1)c1cc(O)c(O)c(OC(=O)c2cc(O)c(O)c(O)c2)c1
Reply: 0.931

Query: Check the records and state normalized growth for CC(=O)O[C@@H]1CC[C@]2(C)C3CC[C@]4(C)C(=O)CCC4C3CC[C@H]2C1 (stereo partly drawn)
Reply: 0.97

Query: Check the records and state normalized growth for COc1ccc(C(=O)c2ccc(O)cc2)c(O)c1O
Reply: 0.965

Query: Check the records and state normalized growth for COc1cccc(OC)c1C(=O)N[C@@H]1C(=O)N2[C@@H]1SC(C)(C)[C@@H]2C(=O)O
Reply: 0.987

Query: Check the records and state normalized growth for CC(C)CC1NC(=O)C(CCCN)NC(=O)C(C(C)C)NC(=O)C2CCCN2C(=O)C(Cc2ccccc2)NC(=O)C(CC(C)C)NC(=O)C(CCCN)NC(=O)C(C(C)C)NC(=O)C2CCCN2C(=O)C(Cc2ccccc2)NC1=O (stereo not drawn) (cyclo(FPV[Orn]LFPV[Orn]L); configuration not given here)
Reply: 1.07

###

- experimental details: chemical genetic growth profiling, strain panel (AID 1159580);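 note: tested at 20 µM; growth read once vehicle control cultures reached saturation at 30 °C; 1 = growth at the plate median or of vehicle wells; lower values mean less growth of the strain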
- experimental context: S. cerevisiae deletion strains, growth OD, locus YHR142W, strain chs7, hits give low values
In all, about 5,500 compounds went through this assay and about 2,000 (36%) were called active. About 18% were inconclusive and are not listed. This is one part of the list.
Here, each record is paired with measured normalized growth data.

Example cases with answers are listed next.
CC(=O)[O][Hg][c]1ccccc1 : 0.0763 (active)
O=C(O)c1cc(=O)c2c(Cl)cc(Cl)cc2[nH]1 : 1.02 (inactive)
COc1cc(/C=C/C(=O)N2CCC=CC2=O)cc(OC)c1OC : 0.944 (inactive)
COc1ccc([C@H]2COc3c(ccc(O)c3OC)C2)c(OC)c1O : 0.968 (inactive)

Query: Check the records and state normalized growth for Cc1ccc(N(CC2=NCCN2)c2cccc(O)c2)cc1
Reply: 1.02 (inactive)

Query: Check the records and state normalized growth for COc1cc(O)cc(OC)c1OC
Reply: 1.01 (inactive)

Query: Check the records and state normalized growth for CC(=O)Oc1ccccc1C(=O)O
Reply: 1.01 (inactive)

###

Here, each record is paired with measured normalized growth data.
- experimental details: chemical genetic growth profiling, strain panel (AID 1159580);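 note: tested at 20 µM; growth read once vehicle control cultures reached saturation at 30 °C; 1 = growth at the plate median or of vehicle wells; lower values mean less growth of the strain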
- experimental context: S. cerevisiae deletion strains, growth OD, locus YGL253W, strain hxk2, hits give low values
Hit rate of the full screen: of about 5,500 compounds, about 2,000 (36%) were called active. Another 18% or so got no clear call; they are omitted. This is one part of the list.
No unit in the answer, only the number.

Example cases with answers are listed next.
CCCCc1nc(Cl)c(CO)n1Cc1ccc(-c2ccccc2-c2nn[nH]n2)cc1 : 0.985
O=C(O)[C@H](O)[C@@](O)(Cc1ccc(O)cc1)C(=O)O : 1.01
C=C(C)[C@H]1Cc2c(ccc3c2O[C@@H]2COc4cc(OC)c(OC)cc4[C@@H]2C3=O)O1 : 0.964
CCCc1nc2c(C)cc(-c3nc4ccccc4n3C)cc2n1Cc1ccc(-c2ccccc2C(=O)O)cc1 : 1.03
Cc1c(NC(=O)c2cccnc2)c(=O)n(-c2ccccc2)n1C : 1
CNS(=O)(=O)Cc1ccc2[nH]cc(CCN(C)C)c2c1 : 1.02

Note: attention shifts to another entry.
Query: Check the records and state normalized growth for COc1cc2c(cc1OC)[C@@]13CCN4CC5=CCOC6CC(=O)N2C1[C@H]6[C@H]5C[C@H]43 (stereo partly specified)
Reply: 0.988

###

Here, each record is paired with measured normalized growth data.
- experimental details: chemical genetic growth profiling, strain panel (AID 1159580);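 note: tested at 20 µM; growth read once vehicle control cultures reached saturation at 30 °C; 1 = growth at the plate median or of vehicle wells; lower values mean less growth of the strain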
- experimental context: S. cerevisiae deletion strains, growth OD, locus YER155C, strain BEM2, hits give low values
Screen size: about 5,500 compounds; about 2,000 (36%) were called active. Inconclusive results (about 18%) are left out. The list shows a part of the results.
No unit in the answer, only the number.

Query: Check the records and state normalized growth for CCN(CC)CCNC(=O)c1cc(Cl)c(N)cc1OC
Reply: 0.999

Query: Check the records and state normalized growth for CC1=C(O)C(=O)C=C2C1=CC=C1[C@@]2(C)CC[C@@]2(C)[C@@H]3C[C@](C)(C(=O)O)CC[C@]3(C)CC[C@]12C
Reply: 0.254

Query: Check the records and state normalized growth for CC(=O)Oc1cc2c(c(C)c1OC(C)=O)CC1OC13C2(C)CCC1(C)C2CC(C)(C(=O)O)CCC2(C)CCC13C (centres undefined)
Reply: 0.99

Query: Check the records and state normalized growth for C=C(C)[C@H]1Cc2c(ccc3c2O[C@@H]2COc4cc(OC)c(OC)cc4[C@@H]2C3=O)O1
Reply: 1
